Assay: chemical genetic growth profiling, strain panel (AID 1159580);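 note: tested at 20 µM; growth read once vehicle control cultures reached saturation at 30 °C; 1 = growth at the plate median or of vehicle wells; lower values mean less growth of the strain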
Conditions: S. cerevisiae deletion strains, growth OD, locus YDL074C, strain BRE1, active compounds read low
The whole screen tested about 5,500 compounds, of which about 2,000 (36%) were called active. Roughly 18% stayed inconclusive and do not appear here. The list shows a part of the results.
The molecules listed here are annotated with their normalized growth.
measured_parameter: normalized growth

[[record]]
molecule = "C=C[C@H]1CN2CC[C@H]1C[C@@H]2[C@@H](OC(=O)OCC)c1ccnc2ccc(OC)cc12"
measured_parameter = "normalized growth"
measured = 1.03

[[record]]
molecule = "COC(=O)[C@]1(C)CCC[C@]2(C)c3ccc(C(C)C)cc3C(=O)CC12 (stereo partly specified)"
measured_parameter = "normalized growth"
measured = 0.863

[[record]]
molecule = "CC(C)c1c(O)ccc2c1CCC1[C@@](C)(C=O)CCC[C@]21C (stereo partly specified)"
measured_parameter = "normalized growth"
measured = 0.12

[[record]]
molecule = "CNC(C)C(O)c1ccccc1 (stereo unspecified)"
measured_parameter = "normalized growth"
measured = 1.02

[[record]]
molecule = "C[C@@H]([C@H](O)c1ccccc1)N(C)C"
measured_parameter = "normalized growth"
measured = 0.999

[[record]]
molecule = "CC(=O)Oc1ccc2c(c1C(C)C)CCC1C(C)(C)CCC[C@]21C (stereo partly specified)"
measured_parameter = "normalized growth"
measured = 1.05

[[record]]
molecule = "COc1ccc2c(c1)CCC1C2CC[C@@]2(C)C1CC[C@@H]2O (stereo partly specified)"
measured_parameter = "normalized growth"
measured = 0.514

[[record]]
molecule = "CCCC(C)(COC(N)=O)COC(=O)NC(C)C (stereo unspecified)"
measured_parameter = "normalized growth"
measured = 0.974

[[record]]
molecule = "O=C(Cc1cccs1)NC1C(=O)N2C(C(=O)[O-])=C(C[n+]3ccccc3)CSC12 (stereo unspecified)"
measured_parameter = "normalized growth"
measured = 1.01

[[record]]
molecule = "CN1C(C)(C)CCCC1(C)C"
measured_parameter = "normalized growth"
measured = 1.06

[[record]]
molecule = "CC(C)c1c(O)c(-c2cc3c(c(C(C)C)c2O)CCC2C(C)(C)CCC[C@]32C)cc2c1CCC1C(C)(C)CCC[C@]21C (stereo partly specified)"
measured_parameter = "normalized growth"
measured = 1.02

